Data provenance: the supplement of paper PMC8007513

Test system: Trichoderma virens ATCC 9645
Protocol Details: growth yield (OD600) relative to untreated control; higher = less growth inhibition
Condition Summary: compound concentration: 100 uM; 72 h
Structures can show the parent of a compound that is named as a salt. Out of some 1,300 compounds screened, about 75 (6%) showed an effect of 50% or more. The entries come from a sample that favours strong results as a whole.
For each record, write down the corresponding growth yield.

What value of growth yield has been recorded for this entry: COc1ccc(C(=O)NCc2ccc(OCCN(C)C)cc2)cc1OC [Itopride]
105%

What value of growth yield has been recorded for this entry: C/C(=C(\CCOP(=O)(O)O)SC(=O)c1ccccc1)N(C=O)Cc1cnc(C)nc1N
96.4%

What value of growth yield has been recorded for this entry: CCN(CC)CCN[C@@H](C(=O)OCCC(C)C)c1ccccc1 [Camylofine chlorhydrate]
102%

What value of growth yield has been recorded for this entry: C/C(=C\C(=O)OCCCCCCCCC(=O)O)C[C@@H]1OC[C@H](C[C@@H]2O[C@H]2[C@@H](C)[C@H](C)O)[C@@H](O)[C@H]1O
39.5%

What value of growth yield has been recorded for this entry: CCOC(=O)c1ccc(OC(=O)CCCCCNC(=N)N)cc1 [Gabexate mesilate]
76%

What value of growth yield has been recorded for this entry: COc1ccc(C(Cl)=C(c2ccc(OC)cc2)c2ccc(OC)cc2)cc1
96.7%

What value of growth yield has been recorded for this entry: CN(C)CCOc1ccc(/C(=C(/CCCl)c2ccccc2)c2ccccc2)cc1
2.73%

What value of growth yield has been recorded for this entry: CCN(CC)CCOC(=O)C(c1ccccc1)c1ccccc1 [Adiphenine hydrochloride]
96.9%

----------
System: Trichoderma virens ATCC 9645
Protocol Details: growth yield (OD600) relative to untreated control; higher = less growth inhibition
Condition Summary: compound concentration: 100 uM; 72 h
Structures can show the parent of a compound that is named as a salt. In all, about 1,300 compounds went through this assay and about 75 (6%) showed an effect of 50% or more. The full list was thinned out, with strong results kept by preference.
For each record, write down the corresponding growth yield.
Respond numerically; units are % and should not be typed.

What value of growth yield has been recorded for this entry: CC(CN(C)C)C(C)(O)Cc1ccc(Cl)cc1 (stereo not drawn) [Clobutinol hydrochloride]
104

What value of growth yield has been recorded for this entry: Oc1c(Cl)cc(Cl)c(Cl)c1Cc1c(O)c(Cl)cc(Cl)c1Cl [Hexachlorophene]
98.9

What value of growth yield has been recorded for this entry: CC(=O)[C@H]1CC[C@H]2[C@@H]3C=CC4=CC(=O)CC[C@@]4(C)[C@@H]3CC[C@]12C [Dydrogesterone]
79.9

What value of growth yield has been recorded for this entry: CC(=O)Nc1c(I)c(C(=O)N[C@H]2C(O)O[C@H](CO)[C@@H](O)[C@@H]2O)c(I)c(N(C)C(C)=O)c1I (stereo partly drawn) [Metrizamide]
105

What value of growth yield has been recorded for this entry: CC(C)(C(=O)c1cccnc1)c1cccnc1 [Metyrapone]
88.4

What value of growth yield has been recorded for this entry: CC(=O)N[C@@H](CC(C)C)C(=O)O [N-Acetyl-L-leucine]
103

What value of growth yield has been recorded for this entry: CC(C)(CO)C(O)C(=O)NCCCO (stereo not drawn) [Panthenol (D)]
98.1

What value of growth yield has been recorded for this entry: CCOC1O[C@H]([C@@H](COCc2ccccc2)OCc2ccccc2)[C@H](OCc2ccccc2)[C@H]1O (stereo partly drawn) [Tribenoside]
87.2

----------
For each record, write down the corresponding growth yield.
System: Trichoderma virens ATCC 9645
Protocol Details: growth yield (OD600) relative to untreated control; higher = less growth inhibition
Condition Summary: compound concentration: 100 uM; 72 h
Counter-ions that a name gives are not always drawn. Screen size: about 1,300 compounds; about 75 (6%) showed an effect of 50% or more. The list comes from a sample in which strong results are over-represented; it also holds close analogues and randomly drawn compounds.
Respond numerically; units are % and should not be typed.

What value of growth yield has been recorded for this entry: Cc1scc2c1N(C(=O)CN1CCN(C)CC1)c1ccccc1NC2=O [Telenzepine dihydrochloride]
103

What value of growth yield has been recorded for this entry: CCCCCCCCCCCCCCCC[N+](C)(C)CCN(Cc1ccc(OC)cc1)c1ncccn1 [Thonzonium bromide]
0

What value of growth yield has been recorded for this entry: N=C(NCCCCCCNC(=N)NC(=N)Nc1ccc(Cl)cc1)NC(=N)Nc1ccc(Cl)cc1 [Chlorhexidine]
2.31

What value of growth yield has been recorded for this entry: Cc1cc(=O)oc2cc(O)ccc12 [Hymecromone]
97

What value of growth yield has been recorded for this entry: CC(C)NC(=N)NC(=N)Nc1ccc(Cl)cc1 [Proguanil hydrochloride]
109

What value of growth yield has been recorded for this entry: N[C@@H](Cc1cc(I)c(Oc2ccc(O)c(I)c2)c(I)c1)C(=O)O [Liothyronine]
97.3

What value of growth yield has been recorded for this entry: C=CC[N@@+]12CC[C@@]34c5ccccc5N5/C=C6/[C@H]7C[C@H]8[C@@]9(CC[N@@+]8(CC=C)C/C7=C/CO)c7ccccc7N(/C=C(/[C@@H](C[C@@H]31)/C(=C\CO)C2)[C@H]54)[C@@H]69 [Alcuronium chloride]
65.8

What value of growth yield has been recorded for this entry: CN(C)[C@@H]1C(O)=C(C(N)=O)C(=O)[C@@]2(O)C(O)=C3C(=O)c4c(O)cccc4[C@@](C)(O)[C@H]3C[C@@H]12 [Tetracycline hydrochloride]
76.2

What value of growth yield has been recorded for this entry: CN1CCN(CCCN2c3ccccc3Sc3ccc(Cl)cc32)CC1 [Prochlorperazine dimaleate]
108

What value of growth yield has been recorded for this entry: CC(C)NC[C@@H](O)COc1ccc(CC(N)=O)cc1 [(R)-(+)-Atenolol]
97.8

What value of growth yield has been recorded for this entry: OCCN1CCN(CCCN2c3ccccc3Sc3ccc(Cl)cc32)CC1 [Perphenazine]
113

What value of growth yield has been recorded for this entry: CC(C(=O)O)c1cccc(Oc2ccccc2)c1 (configuration not stated) [Fenoprofen calcium salt dihydrate]
97.7

What value of growth yield has been recorded for this entry: O=C1c2c(O)ccc(O)c2C(=O)c2c(NCCNCCO)ccc(NCCNCCO)c21 [Mitoxantrone dihydrochloride]
0.21

What value of growth yield has been recorded for this entry: CC(C(=O)O)c1ccc2c(c1)[nH]c1ccc(Cl)cc12 (configuration not stated) [Carprofen]
88.9

What value of growth yield has been recorded for this entry: CC(=O)NCCCS(=O)(=O)O [Acamprosate calcium]
95.9

What value of growth yield has been recorded for this entry: Nc1ncnc2c1ncn2C1OC(COP(=O)(O)O)C(O)C1O (configuration not stated) [Adenosine 5'-monophosphate monohydrate]
107

What value of growth yield has been recorded for this entry: CN(C)CCN(Cc1ccc(Cl)cc1)c1ccccn1 [Chloropyramine hydrochloride]
96.2

What value of growth yield has been recorded for this entry: Nc1nc(=O)c2nc(CNc3ccc(C(=O)N[C@@H](CCC(=O)O)C(=O)O)cc3)cnc2[nH]1 [Folic acid]
105

What value of growth yield has been recorded for this entry: COC(=O)[C@H]1[C@H]2C[C@@H]3c4[nH]c5cc(OC)ccc5c4CCN3C[C@H]2C[C@@H](OC(=O)c2cc(OC)c(OC)c(OC)c2)[C@@H]1OC [Reserpine]
107

What value of growth yield has been recorded for this entry: CCOC(=O)O[C@]1(C(=O)OCCl)CC[C@H]2[C@@H]3CCC4=CC(=O)C=C[C@]4(C)[C@H]3[C@@H](O)C[C@@]21C [Loteprednol etabonate]
97.4

What value of growth yield has been recorded for this entry: Cc1cc2cc3c(C)cc(=O)oc3c(C)c2o1 [Trioxsalen]
73.7

What value of growth yield has been recorded for this entry: O=C1c2c(O)cccc2Cc2cccc(O)c21 [Anthralin]
89.5

What value of growth yield has been recorded for this entry: CCSc1ccc2c(c1)N(CCCN1CCN(C)CC1)c1ccccc1S2 [Thiethylperazine dimalate]
2.73

What value of growth yield has been recorded for this entry: CCOC(=O)[C@@](C)(N)Cc1ccc(O)c(O)c1 [Methyldopate hydrochloride]
97.8

What value of growth yield has been recorded for this entry: O=C1c2cccc(O)c2C(=O)c2c(O)cccc21 [1,8-Dihydroxyanthraquinone]
87.2

What value of growth yield has been recorded for this entry: NS(=O)(=O)c1cc(C2(O)NC(=O)c3ccccc32)ccc1Cl (configuration not stated) [Chlorthalidone]
105

What value of growth yield has been recorded for this entry: CCOC(=O)[C@H](CCc1ccccc1)N[C@H]1CCc2ccccc2N(CC(=O)O)C1=O [Benazepril hydrochloride]
105

What value of growth yield has been recorded for this entry: N=C(N)N/N=C/c1c(Cl)cccc1Cl [Guanabenz acetate]
90.7

What value of growth yield has been recorded for this entry: CC(=O)c1ccc2c(c1)N(CCCN(C)C)c1ccccc1S2 [Acetopromazine maleate salt]
111

What value of growth yield has been recorded for this entry: CN(C)CCCN1c2ccccc2Sc2ccc(Cl)cc21 [Chlorpromazine hydrochloride]
86.5

What value of growth yield has been recorded for this entry: N=C(N)NC(=O)Cc1c(Cl)cccc1Cl [Guanfacine hydrochloride]
101

What value of growth yield has been recorded for this entry: C#C[C@]1(O)CC[C@H]2[C@@H]3[C@H](C)CC4=C(CCC(=O)C4)[C@H]3CC[C@@]21C [Tibolone]
90.7
